test system: BDF1 mice, intracerebral L1210 leukemia, survival T/C; experiment: NCI In Vivo Anticancer Drug Screen. Data for tumor model L1210 Leukemia (intracerebral) in B6D2F1 (BDF1) mice; details: endpoint: mean survival time; dose: 75.0 mg/kg/injection; schedule: Q01DX001 (ip); vehicle: carboxymethylcellulose (CMC); higher = longer survival
Inconclusive results and toxic doses are left out.
Parameter Measured: T/C

Endpoint output: T/C of `CC(=O)c1ccc(NC(=O)N(CCCl)N=O)cc1` . Value?
121 % of control

State the recorded T/C for this entry: `CCOC(=O)c1ccc(NC(=O)N(C)N=O)cc1`
94 % of control

Item `CN(N=O)C(=O)Nc1ccc(F)cc1` has what recorded T/C?
101 % of control
